Test system: PBMC cells obtained from mite allergic patients and non-allergics
Assay: Ex vivo stimulation of PBMC: cytokine production (IFN-gamma, IL-9, IL-10, IL-17, IL-31)
Assay type: cell-based, human
Settings: non-allergic individuals; IL-10
For each record, write down the corresponding % non-allergic individuals with cytokine production in ex-vivo T cell assay IL-10.
Answers are plain numbers, in %.

For the 5 molecules below, give their % non-allergic individuals with cytokine production in ex-vivo T cell assay IL-10 values.
1. A003: house dust mite protein; SEQ ID NO: 2 (Der f), 3 (Der p), 305 (Blo t) (protein) MAIDGKYQMESSEHFEEFVKEMGLDVDMTNVDLSKTSTMEICKDGDVYHIKSETAGIAHEIKFKVGEEFEDDMNGHKFKNVVTMECDNKMVQKKTSADGGKVVNVVREFTDAGCTVKSTYNTVTWTRVYKRM
2. A025: house dust mite protein; SEQ ID NO: 17 (Der f), 18 (Der p) (protein) QSLFVDYNDYSCGSSQNETNELIQEFKIFKKNINGNENFKKINDFIEKARLFRDNAAKQMLEIDQQLLTLNVIQISQRIKLENNKIQCEKLTKFSELLSMQLLAYEVGMFEFAEEIDPNIDFDRKMKNFLDETSRLFNLAEFEKLEKKFRNATSIEKLKNYIDGELVALNDYINEFLKDIIMSEFTVQSRYYLNFSIEDQVQIDSTLMTFSALKILLNDLKDYLEHLDN
3. Derf2: major house dust mite allergen, group 2, Dermatophagoides farinae; control (protein, UniProt Q00855 18-146, looked up) Mite group 2 allergen Der f 2: DQVDVKDCANNEIKKVMVDGCHGSDPCIIHRGKPFTLEALFDANQNTKTAKIEIKASLDGLEIDVPGIDTNACHFMKCPLVKGQQYDIKYTWNVPKIAPKSENVVVTVKLIGDNGVLACAIATHGKIRD
4. Derf1: major house dust mite allergen, group 1, Dermatophagoides farinae; control (protein, UniProt P16311 99-321, looked up) Peptidase 1: TSACRINSVNVPSELDLRSLRTVTPIRMQGGCGSCWAFSGVAATESAYLAYRNTSLDLSEQELVDCASQHGCHGDTIPRGIEYIQQNGVVEERSYPYVAREQRCRRPNSQHYGISNYCQIYPPDVKQIREALTQTHTAIAVIIGIKDLRAFQHYDGRTIIQHDNGYQPNYHAVNIVGYGSTQGDDYWIVRNSWDTTWGDSGYGYFQAGNNLMMIEQYPYVVIM
5. A024: house dust mite protein; SEQ ID NO: 11 (Der f), 12 (Der p), 318 (Blo t) (protein) MSISAHGGGLVNGIAGMENKFTVFTSGKPVSGLTVAFEGPTKPEINFNSTKDGSVDVGYIPKAGGQYKIHIKYEGKEIVGSPFKCNISGDESTHRKLTEKVKVGGPNISTGKVNQDNQLTIDCKEAGITGGISFAMEGPAKVEVSFRNNNDGTITVIYKPPTPGDYKLHLKFNDIHLPGSPYPIVVSA

**A:**
1: 17; 2: 0; 3: 33; 4: 33; 5: 17
